Target: human ether-à-go-go-related gene (hERG) potassium channel (human, UniProt Q12809)
Sequence (Q12809 whole entry, looked up): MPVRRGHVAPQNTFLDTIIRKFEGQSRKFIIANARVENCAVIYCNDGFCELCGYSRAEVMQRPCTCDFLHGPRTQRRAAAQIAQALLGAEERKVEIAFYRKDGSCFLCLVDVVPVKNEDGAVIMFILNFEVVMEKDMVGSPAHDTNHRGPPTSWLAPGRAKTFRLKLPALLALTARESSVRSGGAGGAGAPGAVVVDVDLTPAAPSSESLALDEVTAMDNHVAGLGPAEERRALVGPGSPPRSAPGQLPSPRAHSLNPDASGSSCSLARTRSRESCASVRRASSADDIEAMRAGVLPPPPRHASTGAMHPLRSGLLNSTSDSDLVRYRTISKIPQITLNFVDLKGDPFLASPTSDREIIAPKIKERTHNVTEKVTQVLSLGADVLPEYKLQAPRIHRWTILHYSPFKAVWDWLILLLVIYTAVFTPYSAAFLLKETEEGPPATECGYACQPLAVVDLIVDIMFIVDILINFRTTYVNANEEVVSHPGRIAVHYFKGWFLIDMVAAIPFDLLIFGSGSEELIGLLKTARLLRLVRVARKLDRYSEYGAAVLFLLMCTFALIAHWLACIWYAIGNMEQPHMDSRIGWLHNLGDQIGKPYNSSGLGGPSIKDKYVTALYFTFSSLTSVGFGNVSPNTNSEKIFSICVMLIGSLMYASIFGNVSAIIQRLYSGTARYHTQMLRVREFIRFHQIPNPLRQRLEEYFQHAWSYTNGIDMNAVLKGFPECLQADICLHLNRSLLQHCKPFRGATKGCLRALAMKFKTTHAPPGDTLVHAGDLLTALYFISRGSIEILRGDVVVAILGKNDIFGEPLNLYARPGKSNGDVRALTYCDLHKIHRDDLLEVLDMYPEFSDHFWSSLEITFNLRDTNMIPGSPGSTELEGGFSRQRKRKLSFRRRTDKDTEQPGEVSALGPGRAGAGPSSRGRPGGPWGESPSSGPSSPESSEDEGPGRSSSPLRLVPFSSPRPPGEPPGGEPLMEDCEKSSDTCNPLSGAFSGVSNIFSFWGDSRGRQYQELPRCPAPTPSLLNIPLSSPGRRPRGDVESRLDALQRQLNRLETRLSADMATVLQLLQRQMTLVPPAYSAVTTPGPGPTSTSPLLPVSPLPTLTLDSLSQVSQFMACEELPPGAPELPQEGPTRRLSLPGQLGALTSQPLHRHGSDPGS
Assay: primary screen, population patch clamp on CHO cells stably expressing hERG; higher = less effect of the substance
The campaign covered roughly 310,000 compounds. About 14,000 (4.5%) showed an effect of 50% or more. The effect is printed as a negative number. This excerpt belongs to a sample that is enriched for strong results.
Kindly supply the reported hERG current change (%, negative = inhibition) at 10uM values for the records listed here.
Answers are plain numbers, in %.

For every item below, please supply its hERG current change (%, negative = inhibition) at 10uM.
1. COc1ccccc1/C=C1\SC(=S)N(CCC(=O)NCCc2ccc(O)cc2)C1=O
2. CCCNC(=O)COC(=O)c1cccnc1Nc1ccccc1F
3. O=c1[nH]c(=S)n(CCC2=CCCCC2)c(O)c1C=NCc1cccnc1
4. COc1ccc(-c2noc(CCC(=O)NCCN(C)Cc3ccccc3)n2)cc1
5. COc1ccc(C(C)=O)cc1CSc1nc2cc(Cl)ccc2o1

Result string:
[15.1, -9.21, -0.946, -30.5, 9.66]

For every item below, please supply its hERG current change (%, negative = inhibition) at 10uM.
1. O=c1[nH]c(=S)n(CCC2=CCCCC2)c(O)c1C=NCCCn1ccnc1
2. O=c1[nH]c(=O)n(CCc2ccc(F)cc2)c(O)c1C=NCCCn1ccnc1
3. O=c1[nH]c(=O)n(CCC2=CCCCC2)c(O)c1C=NCCCn1ccnc1
4. Cc1ccc(NC(=O)CCn2cnc3cc(C)c(C)cc32)cc1
5. O=c1[nH]c(=S)n(Cc2ccc(F)cc2)c(O)c1C=NCCCn1ccnc1
6. COc1ccc(CCNC(=O)C(NS(=O)(=O)c2ccc3c(c2)CCN3C(C)=O)C(C)C)cc1OC (centres unmarked)

Result string:
1. -69.3
2. -3.22
3. -17.6
4. -8.26
5. -60.3
6. 25.1

For every item below, please supply its hERG current change (%, negative = inhibition) at 10uM.
1. O=c1[nH]c(=O)n(Cc2ccc(F)cc2)c(O)c1C=NCCCn1ccnc1
2. O=c1[nH]c(=O)n(Cc2ccc(F)cc2)c(O)c1C=NCC1CCCO1 (centres unmarked)

Result string:
[4.08, -13]

For every item below, please supply its hERG current change (%, negative = inhibition) at 10uM.
1. Clc1ccc(Cc2ccccc2)nn1
2. Cc1ccc(-c2noc(CCC(=O)NCCCN3CCN(c4cccc(Cl)c4)CC3)n2)cc1
3. O=c1[nH]c(=S)n(CCC2=CCCCC2)c(O)c1/C=N/N1CCOCC1

Result string:
4.59
2.45
-41.8

For every item below, please supply its hERG current change (%, negative = inhibition) at 10uM.
1. Cc1ccc(/C=C2\SC(=S)N(c3cccnc3)C2=O)o1
2. CN1CCN(/N=C/c2c(O)n(CCC3=CCCCC3)c(=S)[nH]c2=O)CC1
3. CC(C)CNc1nc(N)c([N+](=O)[O-])c(N2CCCCCC2)n1

Result string:
1. 6.67
2. -64.9
3. -0.987

Query string: Find hERG current change (%, negative = inhibition) at 10uM (human ether-à-go-go-related gene (hERG) potassium channel (human, UniProt Q12809)) for the entry N#CC1=C(SCc2ccc(C#N)cc2)N=C(N)C(c2nc(-c3ccccc3)cs2)C12CCCCC2 (centres unmarked)
Result string: 12.3

====

Molecular target: human ether-à-go-go-related gene (hERG) potassium channel (human, UniProt Q12809);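 also: peak tail current of the secondary pulse compared with the same well before compound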
Test: primary screen, population patch clamp on CHO cells stably expressing hERG; higher = less effect of the substance
The campaign covered roughly 310,000 compounds. About 14,000 (4.5%) showed an effect of 50% or more. Effects have a minus sign here. The full list was thinned out, with strong results kept by preference.
Kindly supply the reported hERG current change (%, negative = inhibition) at 10uM values for the records listed here.
Answers are plain numbers, in %.

// solved cases for hERG current change (%, negative = inhibition) at 10uM follow
>  <molecule>
CC(=O)c1cccc(OCC(O)CN2CCN(C(=O)c3ccco3)CC2)c1 (stereo not drawn)

>  <experimental-result>
-2.19

$$$$
>  <molecule>
O=C(c1ccco1)N1CCN(CC(O)COc2ccc(Br)cc2)CC1 (stereo not drawn)

>  <experimental-result>
-72.6

$$$$
>  <molecule>
COc1ccc(OC)c(/C=C/C(=O)N(C)CC(=O)Nc2cc(C)ccc2C)c1

>  <experimental-result>
-15.1

$$$$
>  <molecule>
CN(CC(=O)Nc1cccc(F)c1)C(=O)/C=C/c1cc(Br)ccc1OC(F)F

>  <experimental-result>
-54.8

$$$$
>  <molecule>
OC(COc1ccc(Br)cc1)CN1CCN(c2ccccc2)CC1 (stereo not drawn)

>  <experimental-result>
-21.2

$$$$

For every item below, please supply its hERG current change (%, negative = inhibition) at 10uM.
1. Cc1cc(C)c(OCC(O)CN2CCN(C(=O)c3ccccc3)CC2)c(C)c1.O=C(O)C(=O)O (stereo not drawn)
2. COc1ccc(OC)c(/C=C/C(=O)N(C)CC(=O)Nc2ccc(C)cc2)c1
3. CC(=O)N1CCN(CC(O)COc2ccc(Br)cc2)CC1.O=C(O)C(=O)O (stereo not drawn)
4. CN(CC(=O)Nc1cccc(F)c1)C(=O)/C=C/c1cn(Cc2ccccc2)nc1-c1cccnc1

Result string:
[-46.4, -18.3, -10.7, -48.8]

====

Target: human ether-à-go-go-related gene (hERG) potassium channel (human, UniProt Q12809);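 also: peak tail current of the secondary pulse compared with the same well before compound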
Experiment: primary screen, population patch clamp on CHO cells stably expressing hERG; higher = less effect of the substance
In all, about 310,000 compounds went through this assay and about 14,000 (4.5%) showed an effect of 50% or more. The effect is printed as a negative number. The list comes from a sample in which strong results are over-represented; it also holds close analogues and randomly drawn compounds.
readout-kind: hERG current change (%, negative = inhibition) at 10uM

// solved cases for hERG current change (%, negative = inhibition) at 10uM follow
>  <compound>
CCOC(=O)c1ccccc1NC(=O)c1ccccc1NS(C)(=O)=O

>  <experimental-result>
-0.0503%

$$$$
>  <compound>
COc1cc(/C=N/Nc2nc(=O)[nH]nc2C)ccc1O

>  <experimental-result>
4.93%

$$$$

For every item below, please supply its hERG current change (%, negative = inhibition) at 10uM.
1. COc1ccccc1CNC(=O)CN(c1ccc(C)cc1)S(=O)(=O)c1c(C)nn(C)c1C
2. Cc1ccc(C(C(=O)NC2CCCCC2)N(Cc2ccco2)C(=O)C2COc3ccccc3O2)o1 (centres unmarked)

Result string:
["-24.1%", "-6.27%"]

Query string: What measured hERG current change (%, negative = inhibition) at 10uM goes with Cc1ccc(C(C(=O)NC2CCCCC2)N(Cc2cccnc2)C(=O)C2COc3ccccc3O2)o1 (centres unmarked) ?
Result string: -59.7%

====

Target: human ether-à-go-go-related gene (hERG) potassium channel (human);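 also: peak tail current of the secondary pulse compared with the same well before compound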
Assay: primary screen, population patch clamp on CHO cells stably expressing hERG; higher = less effect of the substance
Hit rate of the full screen: of about 310,000 compounds, about 14,000 (4.5%) showed an effect of 50% or more. The effect is printed as a negative number. The sample as a whole holds a higher share of strong results than the screen did.
readout-kind: hERG current change (%, negative = inhibition) at 10uM (%)
Give bare numbers, in %.

>  <molecule>
CC(=O)Nc1ccc2c(c1)OCCOCCOc1cc(NC(C)=O)ccc1OCCOCCOCCO2

>  <experimental-result>
-2.81

$$$$
>  <molecule>
CCC(=O)c1ccc2c(c1)OCCO2

>  <experimental-result>
3.36

$$$$
>  <molecule>
CS(=O)(=O)O.Clc1cccc2c1Sc1ccccc1CC2N1CCNCC1 (stereo not shown)

>  <experimental-result>
-72.4

$$$$
>  <molecule>
COc1ccc(OC)c(NC(=O)COC(=O)Cn2nnc(-c3ccccc3)n2)c1

>  <experimental-result>
2.66

$$$$
>  <molecule>
CN1CCN(C2=Cc3ccccc3Sc3cc(F)ccc32)CC1.O=C(O)/C=C\C(=O)O

>  <experimental-result>
-62.8

$$$$

For every item below, please supply its hERG current change (%, negative = inhibition) at 10uM.
1. O=C(C[n+]1ccc(/C=C/c2ccccc2)cc1)c1ccc2c(c1)OCCO2.[Br-]
2. COc1ccccc1-n1cnnc1SCC(=O)Nc1ncc(Cl)cc1Cl
3. O=C(COC(=O)c1ccc(O)cc1)NC1CCCCCC1

Result string:
1: -50.2; 2: -0.265; 3: 7.22

For every item below, please supply its hERG current change (%, negative = inhibition) at 10uM.
1. Cc1cc[n+](CC(=O)c2ccc3c(c2)OCCO3)cc1.[Br-]
2. C/C(=N/O)c1ccc2c(c1)OCCOCCOc1cc(/C(C)=N/O)ccc1OCCOCCO2

Result string:
1. -22.2
2. -77.3

====

Target: human ether-à-go-go-related gene (hERG) potassium channel (human, UniProt Q12809);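 also: peak tail current of the secondary pulse compared with the same well before compound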
Experiment: primary screen, population patch clamp on CHO cells stably expressing hERG; higher = less effect of the substance
Hit rate of the full screen: of about 310,000 compounds, about 14,000 (4.5%) showed an effect of 50% or more. The effect is printed as a negative number. This is one part of a sample in which strong results are shown more often than they occur.
readout-kind: hERG current change (%, negative = inhibition) at 10uM (%)
Give bare numbers, in %.

For every item below, please supply its hERG current change (%, negative = inhibition) at 10uM.
1. OCCC1CN(Cc2ccc(Oc3ncccn3)cc2)CCN1C1CCCCC1 (stereo not shown)
2. CCN1CCCC(CO)(Cc2ccccc2)C1 (stereo not shown)

Result string:
1: -7.34; 2: 13.3

For every item below, please supply its hERG current change (%, negative = inhibition) at 10uM.
1. COc1ccc(Cl)cc1NC(=O)NC1CCCCC1
2. Cc1csc(SCC(=O)NC23CC4CC(CC(C4)C2)C3)n1
3. CCN(CC)CCN(Cc1cc2cc(C)cc(C)c2[nH]c1=O)C(=S)NCc1ccco1
4. CCOC(=O)c1c(C)n(C)c2c(C)cc(O)c(OC(=O)CC)c12
5. CC(=O)c1ccc(N2CCN(S(=O)(=O)c3ccc4ccccc4c3)CC2)cc1
6. CSc1ccc(CN2CCC(CO)(Cc3ccc(Cl)cc3)CC2)cc1
7. COc1ccccc1NC(=O)c1ccc(-n2cccn2)nc1
8. COc1ccc(Nc2nc(N)c([N+](=O)[O-])c(N3CCCC3)n2)cc1

Result string:
[10.3, -20.5, -52.5, 7.65, 3.28, -81.3, 3.91, -22.8]

For every item below, please supply its hERG current change (%, negative = inhibition) at 10uM.
1. C/C=C/Cn1c(N2CCCCCC2)nc2c1c(=O)[nH]c(=O)n2C
2. O=C(CCSc1ccccc1)Nc1ncccn1
3. CNC(=S)N(Cc1cccs1)Cc1cc2ccc(OC)cc2[nH]c1=O
4. Cl.Oc1ccc(Nc2nc(N3CCCC3)c3ccccc3n2)cc1
5. Cc1cc(C)c2[nH]c(=O)c(CN(Cc3cccs3)C(=S)NCc3ccco3)cc2c1

Result string:
1. -5.14
2. 14.9
3. 6.44
4. -70.2
5. -15.7

For every item below, please supply its hERG current change (%, negative = inhibition) at 10uM.
1. COc1ccc(Nc2nc(N3CCCCC3)c3ccccc3n2)cc1
2. Cc1cccc(C(=O)O/N=C2/CC3CCC2(C)C3(C)C)c1 (stereo not shown)
3. Cc1ccc2cc(CN(CC3CCCO3)C(=S)NCc3ccco3)c(=O)[nH]c2c1C (stereo not shown)
4. OCCC1CN(Cc2ccc(Oc3ncccn3)cc2)CCN1C1CCCC1 (stereo not shown)

Result string:
[-32.9, -11, -40.8, 8.16]

For every item below, please supply its hERG current change (%, negative = inhibition) at 10uM.
1. CN1CCN(C(=O)c2ccc3c(c2)N(Cc2ccccc2F)C(=O)c2ccccc2S3=O)CC1 (stereo not shown)
2. COCCN1Cc2cccc(C(=O)Nc3ccc4c(c3)OCCO4)c2C1=O
3. Fc1ccccc1CN1CCN(c2ccc(Cl)cc2)CC1
4. CSc1ccc(CN2CCCCCC2)cc1
5. OCC1(Cc2ccc(Cl)cc2)CCN(Cc2ccccc2F)CC1
6. Cl.c1ccc2c(Nc3nc(N4CCOCC4)c4ccccc4n3)cccc2c1

Result string:
1. 5.05
2. -5.24
3. 1.71
4. -35
5. -69.2
6. -6.79

For every item below, please supply its hERG current change (%, negative = inhibition) at 10uM.
1. OCC1(Cc2ccccc2)CCN(Cc2cccc(F)c2F)CC1
2. CSc1ccc(CN2CCCC(CO)(Cc3ccccc3)C2)cc1 (stereo not shown)
3. Cc1cc(NC(=O)CCN2CCC(C(N)=O)CC2)ccc1Br
4. CCOC(=O)C1CCN(CC(=O)Nc2ccc(OC)c(Cl)c2)CC1
5. COc1ccc(Nc2nnc(SCC3CCCO3)s2)cc1 (stereo not shown)

Result string:
1: -11.3; 2: -60.7; 3: -26.7; 4: -12.5; 5: -5.7

For every item below, please supply its hERG current change (%, negative = inhibition) at 10uM.
1. CC(C)(C)c1ccc(-c2cc(C(=O)NNC(=O)Nc3ccccc3)c3ccccc3n2)cc1
2. Cc1ccc(-n2nnnc2-c2ccco2)cc1
3. CN1CCN(c2nc(Nc3ccc(O)cc3)nc3ccccc23)CC1.Cl
4. COc1ccc(Nc2nc(N3CCCC3)c3ccccc3n2)cc1.Cl
5. COc1ccc(-c2ccc(NS(=O)(=O)c3cc([N+](=O)[O-])c(C)c([N+](=O)[O-])c3)cc2)nn1
6. Cc1cc(C)c2[nH]c(=O)c(CN(CC3CCCO3)C(=S)NCc3ccco3)cc2c1 (stereo not shown)
7. OCC1(Cc2ccccc2)CCCN(Cc2ccn[nH]2)C1 (stereo not shown)
8. O=c1cc(CN2CCCCC2)nc(C2CC2)[nH]1

Result string:
1. 13.6
2. -2.37
3. -34.9
4. -70
5. -11.3
6. -4.81
7. -11.8
8. -2.2

For every item below, please supply its hERG current change (%, negative = inhibition) at 10uM.
1. CN(C)c1ccc2c(O)cc(=O)n(C)c2c1
2. O=C(N=Nc1c(O)[nH]c2ccccc12)c1ccc2c(c1)OCO2
3. O=C(CCCCCNC(=O)c1ccccc1)N/N=C/c1ccccc1
4. CCOC(=O)C1CCN(c2c(Nc3ccc(C)c(C)c3)c(=O)c2=O)CC1
5. CSc1ccc(/C=N/N2CCN(Cc3ccc(Cl)cc3)CC2)cc1

Result string:
1. 6.76
2. 6.09
3. -9.98
4. -12.6
5. 8.01
